Provenance of the data: patent US20230416205A1

Tested on: NLRP3
MEASUREMENT_PROTOCOL: IL-1β secretion assay in PMA-differentiated, LPS/nigericin-stimulated THP-1 cells (384-well, ELISA read-out)
Assay type: cell-based, human
SETTINGS: Table 4; IL-1β secretion, LPS/nigericin-stimulated THP-1 cells; read-out: IC50
MEASUREMENT_LABEL: IC50 (nM)
Report the figure in nM without appending any unit label.

Prompt line: Reported IC50 for Cc1cnc(NC(=O)CN2C[C@@]3(C[C@@H]3F)c3cc(C(F)(F)F)ccc3C2=O)nc1 (single isomer, unassigned) [Example 244] : what is it?
Response line: 75

Prompt line: Note, next up: O=C(CN1CC(C(F)F)c2c(ccc(Br)c2F)C1=O)Nc1ncc(F)cn1 (single isomer, unassigned) [Example 295]
Response line: 12800

Prompt line: Same lookup for C[C@@H]1[C@H](F)[C@]12CN(CC(=O)Nc1ncc(F)cn1)C(=O)c1ccc(Br)cc12 (single isomer, unassigned) [Example 277] , please.
Response line: 21

Prompt line: Repeat for the following compound: O=C(CN1CC(C(F)(F)F)c2c(ccc(Br)c2F)C1=O)Nc1ncc(F)cn1 (single isomer, unassigned) [Example 297]
Response line: 14400

Prompt line: Input O=C(CN1CC2(CC2(F)F)c2cc(Br)ccc2C1=O)Nc1ncc(F)cn1 (single isomer, unassigned) [Example 290]
Response line: 3730

Prompt line: Try O=C(CN1CC2(CC2(F)F)c2cc(Br)ccc2C1=O)Nc1ncc(F)cn1 (single isomer, unassigned) [Example 291] next.
Response line: 37

====

System: NLRP3
MEASUREMENT_PROTOCOL: IL-1β secretion assay in PMA-differentiated, LPS/nigericin-stimulated THP-1 cells (384-well, ELISA read-out)
Assay type: cell-based, human
SETTINGS: Homo sapiens, THP-1, Table 4; IL-1β secretion, LPS/nigericin-stimulated THP-1 cells; read-out: IC50
pIC50: −log10 of the molar value.
Threshold rule: pIC50 greater than or equal to 6 is Condition met; below that, Condition not met.

Prompt line: Is reported pIC50 greater than or equal to 6 here: `O=C(CN1CC2(CC2)c2cc(Br)ccc2C1=O)NC1CCN(c2cccnn2)CC1`
Response line: Condition not met

Prompt line: Lookup `O=C(CN1CC2(CC2)c2cc(Br)ccc2C1=O)Nc1cncc2ccccc12`
Response line: Condition not met

Prompt line: Try this compound next: `O=C(CN1C[C@]2(C[C@H]2F)c2cc(Cl)ccc2C1=O)Nc1ncc(F)cn1`
Response line: Condition met

Prompt line: And what about the compound `Cn1ccnc1CNC(=O)CN1CC2(CC2)c2cc(Br)ccc2C1=O` ?
Response line: Condition not met

Prompt line: Again, but for CC(C)(C)OC(=O)N1CCC12CC(NC(=O)CN1CC3(CC3)c3cc(Br)ccc3C1=O)C2 (centres unmarked)
Response line: Condition not met

Prompt line: Param item: CC(C(=O)Nc1ncc(F)cn1)N1CC2(CC2)c2cc(Br)ccc2C1=O (centres unmarked)
Response line: Condition not met

Prompt line: # repeat for `Cn1cc(-c2cnc(NC(=O)CN3CC4(CC4)c4cc(Br)ccc4C3=O)nc2)cn1`
Response line: Condition met

Prompt line: Next compound up: `O=C(CN1CC2(CC2)c2cc(Br)ccc2C1=O)Nc1ccc(OC(F)F)cn1`
Response line: Condition not met

Prompt line: Moving on to the next compound: `O=C(CN1CC2(CC2)c2cc(Br)ccc2C1=O)NC1CC2(CC2)C1`
Response line: Condition not met

Prompt line: Now try `CC1(C)CN(CC(=O)N[C@@H]2CCCN(C3CCC3)C2)C(=O)c2ccc(Br)cc21` .
Response line: Condition met

Prompt line: Another compound: CCN1CC(NC(=O)CN2CC3(CC3)c3cc(Br)ccc3C2=O)CCC1=O (centres unmarked)
Response line: Condition not met

Prompt line: Input `O=C(CN1CC2(CC2)c2cc(CC3CC3)ccc2C1=O)Nc1ncc(F)cn1`
Response line: Condition not met

Prompt line: Entry to check: O=C(CN1CC2(CC2)c2cc(Br)ccc2C1=O)NC1CC(OCc2ccccc2)C1 (centres unmarked)
Response line: Condition not met

Prompt line: Also, `O=C(CN1CC2(CC2)c2cc(Br)ccc2C1=O)Nc1ncc(I)cn1` please.
Response line: Condition met

Prompt line: Let us now turn to `O=C(CN1CC2(CC2)c2cc(Br)ccc2C1=O)NC1CCN(c2ncccn2)CC1`
Response line: Condition not met

Prompt line: Then what about the compound `O=C(CN1CC2(CC2)c2cc(C3CC3)ccc2C1=O)Nc1ncc(Cl)cn1` ?
Response line: Condition met

Prompt line: Can you check `O=C(CN1CC2(CC2)c2cc(Br)ccc2C1=O)Nc1ncccn1` next?
Response line: Condition met

Prompt line: Then what about the compound `Cc1c(C#N)cnc(NC(=O)CN2CC3(CC3)c3cc(Br)ccc3C2=O)c1F` ?
Response line: Condition met

Prompt line: Quick one: `N#Cc1ccc2nc(NC(=O)CN3CC4(CC4)c4cc(Br)ccc4C3=O)oc2c1`
Response line: Condition met

Prompt line: What would you report for `O=C(CN1CC2(CC2)c2cc(C3CCC3)ccc2C1=O)Nc1ncc(F)cn1` ?
Response line: Condition not met

Prompt line: Now consider `O=C1c2ccc(Br)cc2C2(CC2)CN1CC(=O)N1CCc2cccnc21` and answer again.
Response line: Condition not met

Prompt line: Also need `O=C(CN1CC2(CC2)c2cc(Br)ccc2C1=O)Nc1n[nH]c2ccccc12` , thanks.
Response line: Condition not met

Prompt line: Now the compound `CC1(C)CN(CC(=O)N[C@H]2C[C@@](C)(O)C2)C(=O)c2ccc(Br)cc21`
Response line: Condition not met

Prompt line: Another compound to check: `O=C(CN1CC2(CC2)c2cc(Br)ccc2C1=O)Nc1nc2ccccc2o1`
Response line: Condition met

Prompt line: And for O=C(CN1CC2(CC2)c2cc(Br)ccc2C1=O)NC1CCOC(C2CC2)C1 (centres unmarked) ?
Response line: Condition not met

Prompt line: What about `O=C(CN1CC2(CC2)c2cc(Br)ccc2C1=O)Nc1ccc2[nH]nnc2c1` ?
Response line: Condition met

Prompt line: Another compound to check: `O=C(CN1CC2(CC2)c2cc(Br)ccc2C1=O)NC1CC(F)(F)C1`
Response line: Condition not met

Prompt line: Entry to check: `O=C(CN1CC2(CC2)c2cc(Br)ccc2C1=O)Nc1cn2ccccc2n1`
Response line: Condition not met

Prompt line: Request: `Cc1cc(NC(=O)CN2CC3(CC3)c3cc(Br)ccc3C2=O)n(-c2ccccc2)n1`
Response line: Condition not met

====

Test system: NLRP3
MEASUREMENT_PROTOCOL: IL-1β secretion assay in PMA-differentiated, LPS/nigericin-stimulated THP-1 cells (384-well, ELISA read-out)
Type: cell-based, human
SETTINGS: Homo sapiens, THP-1, Table 4; IL-1β secretion, LPS/nigericin-stimulated THP-1 cells; read-out: IC50
Param label: returns yes (1) when IC50 < 3000 nM, returns no (0) otherwise, including exact equality.

Prompt line: IC50 under 3000 nM? Item: `Cc1cn2nc(NC(=O)CN3CC4(CC4)c4cc(Br)ccc4C3=O)ccc2n1`
Response line: yes (1)

Prompt line: // same read-out, input: `O=C(CN1CC2(CC2)c2cc(Br)ccc2C1=O)Nc1cccc2ccncc12`
Response line: yes (1)

Prompt line: What do you have for CN1CCC(NC(=O)CN2CC3(CC3)c3cc(Br)ccc3C2=O)C1=O (centres unmarked) ?
Response line: no (0)

Prompt line: Would you kindly repeat that for `Cc1ccnc(NC(=O)CN2CC3(CC3)c3cc(Br)ccc3C2=O)c1` ?
Response line: no (0)

Prompt line: Subsequent entry: `O=C(CN1CC2(CC2)c2cc(Br)ccc2C1=O)Nc1ccc(OC(F)F)nc1`
Response line: no (0)

Prompt line: Similarly, CC1(C(F)(F)F)CN(CC(=O)Nc2ncc(F)cn2)C(=O)c2c(Br)cccc21 (centres unmarked) ?
Response line: no (0)

Prompt line: Try this molecule next: `N#Cc1cnc(NC(=O)CN2CC3(CC3)c3cc(Br)ccc3C2=O)c(Cl)c1`
Response line: yes (1)

Prompt line: Same question, `O=C(CN1CC2(CC2)c2cc(Br)ccc2C1=O)Nc1nc2cc(C(F)(F)F)ccn2n1` this time
Response line: yes (1)

====

Please respond with reported pIC50 for every item in the list.
System: NLRP3
MEASUREMENT_PROTOCOL: IL-1β secretion assay in PMA-differentiated, LPS/nigericin-stimulated THP-1 cells (384-well, ELISA read-out)
Type: cell-based, human
SETTINGS: Homo sapiens, THP-1, Table 4; IL-1β secretion, LPS/nigericin-stimulated THP-1 cells; read-out: IC50
In plain terms, pIC50 is the concentration in mol/L turned into minus its base-10 logarithm.

Prompt line: Which pIC50 is reported for this molecule? O=C(CN1C[C@@]2(C[C@@H]2F)c2c(ccc(Cl)c2F)C1=O)Nc1ncc(F)cn1 (single isomer, unassigned)
Response line: 7.26

Prompt line: Now the molecule `O=C(CN1CC2(CC2)c2cc(Br)ccc2C1=O)Nc1ncc(-c2ccccn2)cn1`
Response line: 5.73

Prompt line: Another molecule to look at: `COc1ccc2c(c1)C1(CC1)CN(CC(=O)Nc1ncccn1)C2=O`
Response line: 5.49

Prompt line: Queued: `O=C(CN1CC2(CC2)c2cc(C(F)(F)F)ccc2C1=O)Nc1ncc(F)cn1`
Response line: 6.43
